- System: IGROV-1
- ASSAY METHOD TEXT: NCI tumour cell line growth inhibition, 48 h
The source made the active and inactive calls. Rule as the data show it: active = GI50 up to about 1.1 µM and inactive = higher.
Field 'call' accepts active, inactive

Some entries whose results are on file:
CC1(C)CC(=O)C2=C(C1)C(c1ccccc1Cl)C1C(=O)CC(C)(C)CC1(O)O2 (configuration not stated)
inactive
CC1(C)OCC(/C=C\C(O)CC2(C)OCCO2)CO1 (configuration not stated)
inactive
COC(=O)[C@]1(c2cc3ccccc3n2S(=O)(=O)c2ccccc2)CC2CN(C(=O)OCc3ccccc3)C1C1OC(C)(C)OC21 (some centres not stated)
inactive
COc1ccc(-c2nnc(-c3nsc4ccccc34)o2)cc1
inactive
CNc1cccc(-c2cc(O)c3cc4c(cc3n2)OCO4)c1
active
O=C(O)C1CCCN(CCc2c[nH]c3ccccc23)C1 (configuration not stated)
inactive

Please turn your attention to the following entry.
INPUT: Recorded test outcome, item `Nc1c2c(nc3ccccc13)-c1ccccc1CC2`
OUTPUT: inactive
